testedTarget: T1, human CD19 on Raji cells (human, UniProt P15391 20-556)
T1 construct: whole, on cells
T1 sequence (looked up): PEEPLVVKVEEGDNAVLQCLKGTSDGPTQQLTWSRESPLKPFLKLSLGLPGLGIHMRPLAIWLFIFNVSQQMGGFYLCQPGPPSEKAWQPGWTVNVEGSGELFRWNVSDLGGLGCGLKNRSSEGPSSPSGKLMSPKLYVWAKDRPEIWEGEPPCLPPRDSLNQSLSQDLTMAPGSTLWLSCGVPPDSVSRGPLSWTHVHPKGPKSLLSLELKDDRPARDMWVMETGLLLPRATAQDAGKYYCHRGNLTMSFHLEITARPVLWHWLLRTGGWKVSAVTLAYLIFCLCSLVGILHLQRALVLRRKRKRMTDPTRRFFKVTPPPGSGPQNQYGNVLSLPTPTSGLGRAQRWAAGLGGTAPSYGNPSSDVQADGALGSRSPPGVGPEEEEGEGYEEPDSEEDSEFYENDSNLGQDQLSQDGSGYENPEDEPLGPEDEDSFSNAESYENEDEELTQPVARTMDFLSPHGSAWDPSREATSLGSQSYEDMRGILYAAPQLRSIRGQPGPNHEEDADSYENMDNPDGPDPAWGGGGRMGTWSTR
assayDetails: FACS on Raji cells
Procedure: The desired cells were scale-up cultured in a T-75 cell culture flask to the logarithmic growth phase. For the adherent cell CHO-K1, the medium was aspirated, the cells were washed 2 times with a PBS buffer, and then digested with trypsin. […] Data analysis was performed by software (FlowJo) to obtain the mean fluorescence intensity (MFI) of the cells. […]
Can you tell me Maximum mean fluorescence intensity for the items I'm about to list?

Ask: Would you kindly share the measured Maximum mean fluorescence intensity for F4.15.9 (antibody, human IgG1, V domains shown, human-murine chimeric antibody, human IgG1) VH: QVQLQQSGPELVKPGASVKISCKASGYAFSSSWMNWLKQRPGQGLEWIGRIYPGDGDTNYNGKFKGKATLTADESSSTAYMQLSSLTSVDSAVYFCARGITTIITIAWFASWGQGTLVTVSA VL: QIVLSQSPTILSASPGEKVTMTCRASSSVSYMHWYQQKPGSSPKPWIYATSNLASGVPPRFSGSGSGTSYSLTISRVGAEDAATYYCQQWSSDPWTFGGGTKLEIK ?
Result: 31300

Ask: Look up Maximum mean fluorescence intensity: F1-mab003 (antibody, human IgG1, V domains shown, human-murine chimeric antibody, human IgG1) VH: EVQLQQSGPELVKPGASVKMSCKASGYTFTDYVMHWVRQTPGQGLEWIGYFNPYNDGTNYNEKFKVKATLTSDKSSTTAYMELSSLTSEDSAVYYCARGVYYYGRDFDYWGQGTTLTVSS VL: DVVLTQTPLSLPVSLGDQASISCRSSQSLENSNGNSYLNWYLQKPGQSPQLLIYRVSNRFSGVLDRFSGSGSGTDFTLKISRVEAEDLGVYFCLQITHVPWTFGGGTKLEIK
Result: 33100

Ask: Would you kindly share the measured Maximum mean fluorescence intensity for F4.180.1 (antibody, human IgG1, V domains shown, human-murine chimeric antibody, human IgG1) VH: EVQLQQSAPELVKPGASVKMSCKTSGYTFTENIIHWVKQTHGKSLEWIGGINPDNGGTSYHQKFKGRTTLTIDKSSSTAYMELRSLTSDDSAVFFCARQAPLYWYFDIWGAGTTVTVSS VL: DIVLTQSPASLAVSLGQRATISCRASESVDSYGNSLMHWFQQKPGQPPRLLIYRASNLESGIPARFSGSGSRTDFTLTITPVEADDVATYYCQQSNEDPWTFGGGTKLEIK ?
Result: 23700

Ask: Maximum mean fluorescence intensity for F3.64.4 (antibody, human IgG1, V domains shown, human-murine chimeric antibody, human IgG1) VH: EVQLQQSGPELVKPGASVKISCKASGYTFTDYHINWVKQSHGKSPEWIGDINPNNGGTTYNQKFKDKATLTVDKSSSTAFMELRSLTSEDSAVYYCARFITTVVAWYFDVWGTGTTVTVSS VL: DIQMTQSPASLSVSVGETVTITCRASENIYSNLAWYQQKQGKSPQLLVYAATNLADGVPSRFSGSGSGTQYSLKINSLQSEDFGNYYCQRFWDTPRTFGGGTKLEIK ?
Result: 35800

Ask: Value lookup for Maximum mean fluorescence intensity; key = F4.152.7 (antibody, human IgG1, V domains shown, human-murine chimeric antibody, human IgG1) VH: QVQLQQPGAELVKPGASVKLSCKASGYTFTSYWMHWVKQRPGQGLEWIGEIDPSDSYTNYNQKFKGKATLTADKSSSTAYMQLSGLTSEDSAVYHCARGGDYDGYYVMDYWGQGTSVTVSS VL: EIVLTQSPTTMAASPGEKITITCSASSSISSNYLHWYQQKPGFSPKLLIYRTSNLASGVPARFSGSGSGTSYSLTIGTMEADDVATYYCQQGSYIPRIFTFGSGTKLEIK
Result: 26000
